target_system: Serine/threonine-protein kinase SIK2 (Homo sapiens)
conditions: at 1 µM
measurement_label: inhibition (%)
The response must be a number in % with no trailing unit.

sample_smiles: CS(=O)(=O)CCNCc1ccc(-c2ccc3ncnc(Nc4ccc(OCc5ccccc5)cc4)c3c2)o1
target_system: Serine/threonine-protein kinase SIK2 (Homo sapiens)
value_unit: %
inhibition: 6.41
//
sample_smiles: OCCCNc1nccc(-c2c(-c3ccc(F)cc3)nn3cc(C(F)(F)F)ccc23)n1
target_system: Serine/threonine-protein kinase SIK2 (Homo sapiens)
value_unit: %
inhibition: 16.9
//
sample_smiles: COc1ccc(-c2nn3ncccc3c2-c2ccnc(Nc3ccc(F)c(F)c3)n2)cc1
target_system: Serine/threonine-protein kinase SIK2 (Homo sapiens)
value_unit: %
inhibition: 7.08
//
sample_smiles: CCn1c(-c2nonc2N)nc2cncc(C(=O)NCCNC)c21
target_system: Serine/threonine-protein kinase SIK2 (Homo sapiens)
value_unit: %
inhibition: 6.02
//
sample_smiles: CCS(=O)(=O)c1ccc(OC)c(Nc2ncc(-c3cccc(F)c3)o2)c1
target_system: Serine/threonine-protein kinase SIK2 (Homo sapiens);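 further: mean inhibition of SNF1LK2 (QIK) kinase activity, from the GSK PKIS screening panel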
value_unit: %
inhibition: 36.7

Shifting focus to the compound that follows.
Field inhibition (system: Serine/threonine-protein kinase SIK2 (Homo sapiens)) for entry CS(=O)(=O)CCNCc1ccc(-c2ccc3ncnc(Nc4ccc(OCc5cccc(C(F)(F)F)c5)cc4)c3c2)o1 = 8

All values here come from ChEMBL document CHEMBL1961873.
